subject-of-test: HCV NS3 helicase NS3h_1b(con1) (Hepatitis C virus genotype 1b, UniProt Q9WMX2)
Construct: truncated C-terminally His-tagged NS3 proteins lacking the N-terminal protease, called NS3h; His-tag (C); made in house
Sequence (Q9WMX2 1192-1657): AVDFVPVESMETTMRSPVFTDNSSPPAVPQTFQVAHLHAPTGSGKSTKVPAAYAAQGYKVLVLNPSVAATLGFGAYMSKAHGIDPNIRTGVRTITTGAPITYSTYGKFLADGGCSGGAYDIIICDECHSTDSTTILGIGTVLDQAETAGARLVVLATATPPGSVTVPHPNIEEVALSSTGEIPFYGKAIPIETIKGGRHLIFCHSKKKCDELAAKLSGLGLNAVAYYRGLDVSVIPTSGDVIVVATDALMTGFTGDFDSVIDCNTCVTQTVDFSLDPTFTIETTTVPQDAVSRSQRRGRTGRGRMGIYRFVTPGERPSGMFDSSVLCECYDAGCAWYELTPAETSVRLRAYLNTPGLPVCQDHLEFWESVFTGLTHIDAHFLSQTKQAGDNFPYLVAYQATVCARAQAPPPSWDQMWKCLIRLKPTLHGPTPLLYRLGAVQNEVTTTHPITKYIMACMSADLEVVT
assay-remarks: MBHA screen of NCI mechanistic set library at 20 μM (percent inhibition, compound interference)
Type: biochemical
condition: compounds at 20 μM, MBHA with a DNA substrate; calculated from Equation 1
measurement-name: Inh. (%) (Inhibition)

Item CCc1cccc(CC)c1NC(=O)C(C#N)C1=C(Cl)C(=O)c2ccccc2C1=O (stereo not drawn) [Compound 634503] with HCV NS3 helicase NS3h_1b(con1) (Hepatitis C virus genotype 1b, UniProt Q9WMX2) - Inh. (%) (Inhibition)?
−31.9

# repeat for CC(/C=C/C(O)=C1/C(=O)CNC1=O)=C\[C@@H](C)[C@H]1O[C@]2(C)O[C@@H](C(=O)[C@@H]3O[C@@]32C)[C@@H]1C [Compound 107067]
−6.0

Now consider Fc1cccc(Cl)c1C1SCc2nc3ccccc3n21 (stereo not drawn) [Compound 625483] and answer again.
12.0

And the next one, CN(C)c1ccc(/C=C2/C=Cc3ccccc32)cc1 [Compound 80087] ?
−7.0

Next up: CN1CCCC2C(c3ccccc3)C(C3=NCCCC3)C(c3ccccc3)CC21.Cl (stereo not drawn) [Compound 109444]
7.2

[P] CC1=CC(=O)c2ccccc2C1=O [Compound 4170]
[Q] Cc1nn(-c2ccccc2)c2c1CC(=O)Nc1ccccc1-2 [Compound 662553]
[R] CC[C@@]1(O)C[C@H](O[C@H]2C[C@H](N(C)C)[C@H](O[C@H]3C[C@H](O)[C@H](O[C@H]4C[C@H](O)[C@H](O)[C@H](C)O4)[C@H](C)O3)[C@H](C)O2)c2c(cc3c(c2O)C(=O)c2c(O)ccc(O)c2C3=O)[C@H]1C(=O)OC [Compound 265211]
[S] Cc1cc(=O)[nH]c(NN2C(Cl)C(=O)C2c2c(O)ccc3ccccc23)n1 (stereo not drawn) [Compound 653016]
Arrange the 4 molecules from largest to smallest Inh. (%) (Inhibition). A complete answer lists every label in the requested sequence.
R, Q, P, S
(R: 8.9%, Q: −4.6%, P: −27.3%, S: −40.6%)

# credit: patent US9464064B2
